Biological target: T1, CRBN, Q96SW2;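 further: pooled lentiviral library of zinc finger degron-EGFP fusions in mCherry-positive Jurkat cells, FACS-sorted after compound exposure, with degron abundance counted by next-generation sequencing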
T1 chain: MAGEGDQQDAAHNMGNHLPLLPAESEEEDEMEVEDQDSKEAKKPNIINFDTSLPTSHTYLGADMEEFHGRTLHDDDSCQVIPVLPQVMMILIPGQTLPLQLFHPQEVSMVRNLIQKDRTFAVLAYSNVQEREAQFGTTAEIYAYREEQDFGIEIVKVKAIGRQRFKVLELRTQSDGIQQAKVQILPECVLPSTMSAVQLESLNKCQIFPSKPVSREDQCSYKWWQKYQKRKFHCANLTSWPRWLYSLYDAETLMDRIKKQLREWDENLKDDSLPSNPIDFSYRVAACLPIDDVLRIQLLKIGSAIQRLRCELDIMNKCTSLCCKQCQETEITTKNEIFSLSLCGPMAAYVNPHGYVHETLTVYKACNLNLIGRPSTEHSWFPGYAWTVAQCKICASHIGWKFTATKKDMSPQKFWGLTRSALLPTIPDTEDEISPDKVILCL
Test: log2 fold change of degron read counts, EGFP-low vs EGFP+ sorted cells (limma voom), compound-induced degradation; higher = more compound-induced degradation of the degron-EGFP fusion; degrons are variants of IKZF1/3 zinc finger 2; compound dose not given here
Conditions: Jurkat; 18 h; compound: thalidomide
Whole data set: some 8,300 sequences, median “log2 fold change of degron read counts, EGFP-low vs EGFP+ sorted cells (limma voom), compound-induced degradation” near -1.1, cut for the highest 2% near 3.2. This is one part of a sample in which the highest values are shown more often than they occur.
Exercise: for every item that follows, state its recorded log2 fold change of degron read counts.
Answers are plain numbers.

Observe how each entry below is paired with its result.
# biopolymer sequence, log2 fold change of degron read counts
records = [
    ("FHCPVCGAGFTQKGNLLRHIKL [46F_47H_49P_50V_52G_53A_54G_55F_67L_, Q9UKT9]", -0.326),
    ("FRCPVCGAGFTQKGNLLRHIKL [46F_47R_49P_50V_52G_53A_54G_55F_67L_, Q9UKT9]", 1.72),
    ("FACPVCGAGFTQKGNLLRHIKL [46F_47A_49P_50V_52G_53A_54G_55F_67L_, Q9UKT9]", 0.677),
]

From here, focus on the item given below.
[in] What value of log2 fold change of degron read counts has been recorded for this entry: FVCPVCGAGFTQKGNLLRHIKL [46F_47V_49P_50V_52G_53A_54G_55F_67L_, Q9UKT9]
[out] 2.79
